Where do the numbers come from? From patent US7951815B2.

system: NA transporter; assay: Inhibition of noradrenaline uptake in rat brain synaptosomes; type: biochemical; settings: Table III
Parameter threshold = 40%. Response is criterion met when Uptake (NA), rat, 10 μM, % inhibition meets or exceeds it, else criterion not met.

molecule	assigned-category
CCCCN1C(=O)C(CCSC)NC12CCN(C(=O)Cc1ccc(OC)c(OC)c1)CC2 (centres unmarked) [Example 97]	criterion not met
C=CCN1C(=O)C(CCSC)NC12CCN(C(=O)C1CC1)CC2 (centres unmarked) [Example 281]	criterion not met
CC(C)CC1NC2(CCN(C(=O)c3sccc3Cl)CC2)NC1=O (centres unmarked) [Example 94]	criterion not met
CCOC(=O)C(C)(C)C(=O)N1CCC2(CC1)NC(CC(C)C)C(=O)N2CCCCOC(C)=O (centres unmarked) [Example 278]	criterion met
C=CCCC(=O)N1CCC2(CC1)NC(Cc1ccccc1)C(=O)N2C (centres unmarked) [Example 139]	criterion not met

Qu. Given CC(C)CC1NC2(CCN(C(=O)c3cccc(Cl)c3)CC2)NC1=O (centres unmarked) [Example 90] , state whether its Uptake (NA), rat, 10 μM, % inhibition is at least 40%.
Ans. criterion not met

Qu. // inclusive: Uptake (NA), rat, 10 μM, % inhibition at least 40%? input: O=C(C1CCCCC1)N1CCC2(CC1)NCC(=O)N2CCOc1ccccc1 [Example 123]
Ans. criterion not met

Qu. Determine whether this molecule has Uptake (NA), rat, 10 μM, % inhibition no lower than 40%: COCC(=O)N1CCC2(CC1)NC(CCSC)C(=O)N2Cc1cccc(C#N)c1 (centres unmarked) [Example 112]
Ans. criterion met

Qu. Is Uptake (NA), rat, 10 μM, % inhibition at least 40%? Consider C#CCN1C(=O)C(Cc2ccccc2)NC12CCN(C(=O)c1c(F)cccc1Cl)CC2 (centres unmarked) [Example 210]
Ans. criterion not met

Qu. State whether the measured Uptake (NA), rat, 10 μM, % inhibition reaches 40%, counting equality as reaching it, for COc1cc(C(=O)N2CCC3(CC2)NCC(=O)N3Cc2ccccc2F)cc(OC)c1OC [Example 271]
Ans. criterion not met

Qu. Textbook exercise: given the entry CC(=O)OC(C(=O)N1CCC2(CC1)NC(Cc1ccccc1)C(=O)N2C)c1ccccc1 (centres unmarked) [Example 113] , state whether its Uptake (NA), rat, 10 μM, % inhibition is greater than or equal to 40%.
Ans. criterion met

Qu. Given CN1C(=O)C(Cc2ccccc2)NC12CCN(C(=O)c1ccc([N+](=O)[O-])cc1)CC2 (centres unmarked) [Example 238] , state whether its Uptake (NA), rat, 10 μM, % inhibition is at least 40%.
Ans. criterion not met
